experiment: CCTE_Mundy_HCI_Cortical_Synap_Neur_Matur_NeuronCount: CCTE's Synaptogenesis and Neurite Maturation Assay in rat cortical cells for Neuron Count, Mundy Lab (AID 2284242)
Records with an inconclusive call do not appear. Active and inactive are the calls of the source. How the source made its calls: active means hit-call score of the fitted dose curve at least 0.9, where 1 is the maximum; inconclusive means response in the unintended direction; inactive means score below 0.9.
Hi! Could you answer with just one of these? active, inactive

{"columns": ["Molecule", "Classification"],
 "data": [
  ["CC1(C)[C@H](C(=O)O[C@H](C#N)c2cccc(Oc3ccccc3)c2)[C@@H]1C=C(Br)Br", "active"],
  ["CC1(C)C(C=C(Cl)Cl)C1C(=O)O[C@H](C#N)c1cccc(Oc2ccccc2)c1 (some centres undefined)", "active"],
  ["CC(=O)[O-].[Tl+]", "active"]
]}

Enquiry: Recorded call for CN[C@]1(c2ccccc2Cl)CCCCC1=O ?
Return: inactive

---

experiment: ATG_GLI_CIS: Attagene CIS-FACTORIAL HepG2 Assay for human Zinc Finger Protein GLI1 (AID 2282945); settings: HepG2, Attagene cis-factorial reporter mRNA, GLI element; actives raise or lower the signal
Calls of active or inactive are those of the source. The calls were made as follows: active = hit-call score of the fitted dose curve at least 0.9, where 1 is the maximum; inactive = score below 0.9.
# output must be one of active, inactive

Worked examples, 5 compounds total:
{"columns": ["Compound", "Classification"],
 "data": [
  ["O=[N+]([O-])C=Cc1ccccc1", "active"],
  ["c1ccc(P(c2ccccc2)c2ccccc2)cc1", "inactive"],
  ["C[N+](C)(C)CC(=O)O", "inactive"],
  ["c1cc(OCC2CO2)ccc1Cc1ccc(OCC2CO2)cc1 (stereo not given)", "inactive"],
  ["Nc1ccc(-c2ccc(N)c(N)c2)cc1N", "inactive"]
]}

Enquiry: State the result this test recorded for Nc1ccccc1C(=O)OCCc1ccccc1 .
Return: inactive

Enquiry: Assay result, entry O=C(CCl)c1ccccc1 — outcome?
Return: inactive

Enquiry: Short answer needed: outcome of this test for N#CCCCCC#N ?
Return: inactive

Enquiry: Status in this test for COC(=O)c1ccccc1S(=O)(=O)NC(=O)Nc1nc(C)cc(C)n1 ?
Return: inactive

---

test system: rat Monoamine Oxidase, MAO-A, Central (MAOAC), gene 29253; assay: NVS_ENZ_rMAOAC: NovaScreen (NVS) Enzymatic Assay for rat Monoamine Oxidase, MAO-A, Central (MAOAC) (AID 2283243);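 further: potency refers to inhibition seen as signal drop below DMSO baseline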
The source made the active and inactive calls. The calls were made as follows: active = hit-call score of the fitted dose curve at least 0.9, where 1 is the maximum; inconclusive = response in the unintended direction; inactive = score below 0.9.
Respond only with the outcome that fits, drawn from active, inactive

Example entries begin here.
{"columns": ["Compound", "Classification"],
 "data": [
  ["CN1CCN(Cc2cc(-c3ccc4[nH]c(=O)oc4c3)co2)[C@@H](c2ccc(F)cc2)C1", "active"],
  ["CCOC(=O)CC(C)O (centres undefined)", "inactive"],
  ["CSC(=O)c1cccc2nnsc12", "active"]
]}

# evaluate next
Enquiry: State the result this test recorded for CCOc1ccc(NC(C)=O)cc1 .
Return: active

---

read-out: Macrophage colony-stimulating factor (MCSF), CSF1 (gene 1435); assay: BSK_LPS_MCSF: BioMAP Diversity Plus: LPS Assay for Macrophage colony-stimulating factor (MCSF) Biomarker Activity (AID 2283083); details: primary human HUVEC with PBMC; actives raise or lower the signal
Activity calls are given as the source filed them. Rule for the calls: active = hit-call score of the fitted dose curve at least 0.9, where 1 is the maximum; inactive = score below 0.9.
// allowed return values: active, inactive

The following compounds have reported results that may help.
{"columns": ["Compound", "Classification"],
 "data": [
  ["CCc1cc(C)cc(CC)c1-c1c(OC(=O)C(C)(C)C)n2n(c1=O)CCOCC2", "inactive"],
  ["CC1(C)[C@H](C(=O)O[C@H](C#N)c2cccc(Oc3ccccc3)c2)[C@@H]1C=C(Br)Br", "inactive"],
  ["CCC(C)c1cc([N+](=O)[O-])cc([N+](=O)[O-])c1OC(=O)C=C(C)C (configuration not stated)", "active"]
]}

Enquiry: Recorded test call requested for CC(C)CCCCCCCOP(=O)(Oc1ccccc1)Oc1ccccc1
Return: active

Enquiry: What outcome does the record of this test show for COc1ccc(CO)cc1 ?
Return: inactive

Enquiry: I'd appreciate the recorded outcome for Oc1cc(Cl)ccc1Cl from this test.
Return: inactive

Enquiry: For O=C1C(Cl)=C(Cl)C(=O)C(Cl)=C1Cl , which call appears in the assay record?
Return: active

Enquiry: Kindly provide the recorded test outcome for the following compound: O=[N+]([O-])O
Return: inactive

// provenance: PubChem BioAssay (EPA / NIEHS)
